Test summary: xn = mol fraction of the nth substance listed, in the solute-free solvent
Condition context: 323.15 K; x2 = 0.6
Class assignment keyed on solubility (g/100 g solution), ranges zone 1 (below 10), zone 2 (10 to below 20), zone 3 (20 or more)

Some solved cases for reference:
Molecule | Label value
Cl.NC(Cc1ccccc1)C(=O)OCc1ccccc1 (stereo not given) + CO + CC(C)=O | zone 2
Cl.N=C(N)NC(=N)N1CCOCC1 + O + CC(C)O | zone 3
CCOc1ccccc1C(N)=O + CO + CC#N | zone 3
Cc1c(Br)c(=O)n(C2CCCC2)c2nc(Cl)ncc12 + CCOC(C)=O + CCO | zone 1
Cc1c(Br)c(=O)n(C2CCCC2)c2nc(Cl)ncc12 + CC1=CC(=O)CC(C)(C)C1 + CC(C)O | zone 1

Where would N#CCNC(=O)c1cnccc1C(F)(F)F + CCOC(C)=O + CCO land among the classes by reported solubility (g/100 g solution)?
zone 2
